System: Colletotrichum lagenaria
Experiment: Fungicidal activity against Colletotrichum lagenaria at 50 ug/ml by growth inhibition method
Format: functional
Conditions: read-out: GI
Give y when the value for inhibition of growth at 50 µg/mL is at least 10%. Give n when it is less.

# COMPOUND, CLASS NAME
records = [
    ("Cc1ccc(N(C(=O)c2nnsc2C)C(C(=O)NC2CCCCC2)c2cccc(Cl)c2)cc1F (stereo unspecified)", "n"),
    ("Cc1ccc(N(C(=O)c2nnsc2C)C(C(=O)NC2CCCCC2)c2cccc(C(F)(F)F)c2)cc1F (stereo unspecified)", "y"),
    ("Cc1cccc(C(C(=O)NC(C)C)N(C(=O)c2nnsc2C)c2ccc(C)c(Cl)c2)c1 (stereo unspecified)", "y"),
    ("Cc1ccc(N(C(=O)c2nnsc2C)C(C(=O)NC(C)C)c2ccc(C(F)(F)F)cc2)cc1Cl (stereo unspecified)", "n"),
]

---

System: Nicotiana tabacum
Assay: Induction of systemic acquired resistance activity in TMV infected-Nicotiana tabacum (tobacco) leaves at 50 ug/ml
Assay type: functional
Reported Activity values follow for various compounds

# COMPOUND, MEASUREMENT UNIT, Activity
measured = [
    ("Cc1cccc(C(C(=O)NC(C)C)N(C(=O)c2nnsc2C)c2ccc(C)c(Cl)c2)c1 (stereo not drawn)", "%", 65),
    ("Cc1ccc(N(C(=O)c2nnsc2C)C(C(=O)NC2CCCCC2)c2cccc(O)c2)cc1F (stereo not drawn)", "%", 32),
    ("Cc1ccc(N(C(=O)c2nnsc2C)C(C(=O)NC(C)C)c2ccccc2)cc1Cl (stereo not drawn)", "%", 33),
]

---

Test system: Tobacco mosaic virus
Experiment: In vivo antiviral activity against Tobacco mosaic virus (TMV) infected tobacco leaves assessed as inactivation effect at 100 ug/ml co-treated with virus for 30 min before inoculation onto leaves measured at 2-3 days after viral challenge
Format: functional
Collected Activity values appear next to each entry.

# COMPOUND, Activity
records = [
    ("Cc1ccc(N(C(=O)c2nnsc2C)C(C(=O)NC2CCCCC2)c2cccc(O)c2)cc1F (centres undefined)", "44%"),
    ("Cc1ccc(N(C(=O)c2nnsc2C)C(C(=O)NC(C)C)c2ccccc2C)cc1Cl (centres undefined)", "23%"),
    ("Cc1ccc(N(C(=O)c2nnsc2C)C(C(=O)NC(C)C)c2ccccc2C(F)(F)F)cc1F (centres undefined)", "67%"),
    ("Cc1ccc(N(C(=O)c2nnsc2C)C(C(=O)NC(C)C)c2ccc([N+](=O)[O-])cc2)cc1F (centres undefined)", "65%"),
    ("Cc1ccc(N(C(=O)c2nnsc2C)C(C(=O)NC(C)C)c2ccccc2)cc1Cl (centres undefined)", "50%"),
    ("Cc1ccc(N(C(=O)c2nnsc2C)C(C(=O)NC2CCCCC2)c2cccc(Cl)c2)cc1F (centres undefined)", "69%"),
    ("Cc1ccc(NC(=O)c2snnc2C)cc1Cl", "42%"),
    ("NC(=O)c1ncn([C@@H]2O[C@H](CO)[C@@H](O)[C@H]2O)n1", "46%"),
    ("Cc1ccc(N(C(=O)c2nnsc2C)C(C(=O)NC(C)C)c2ccc(O)cc2)cc1Cl (centres undefined)", "50%"),
]

---

Tested on: Colletotrichum lagenaria
Assay: Fungicidal activity against Colletotrichum lagenaria at 50 ug/ml by growth inhibition method
Assay type: functional
Settings: read-out: GI

# COMPOUND, inhibition of growth at 50 µg/mL, %
records = [
    ("Cc1ccc(C(C(=O)NC2CCCCC2)N(C(=O)c2nnsc2C)c2ccc(C)c(F)c2)cc1 (stereo not drawn)", 14),
    ("Cc1cccc(C(C(=O)NC2CCCCC2)N(C(=O)c2nnsc2C)c2ccc(C)c(F)c2)c1 (stereo not drawn)", 0),
    ("Cc1ccc(N(C(=O)c2nnsc2C)C(C(=O)NC(C)C)c2ccc(Cl)cc2)cc1Cl (stereo not drawn)", 7),
    ("Cc1ccc(N(C(=O)c2nnsc2C)C(C(=O)NC(C)C)c2cccc(C(F)(F)F)c2)cc1F (stereo not drawn)", 14),
    ("Cc1ccc(N(C(=O)c2nnsc2C)C(C(=O)NC2CCCCC2)c2ccc(F)cc2)cc1F (stereo not drawn)", 14),
    ("Cc1ccc(C(C(=O)NC(C)C)N(C(=O)c2nnsc2C)c2ccc(C)c(Cl)c2)cc1 (stereo not drawn)", 11),
    ("Cc1ccc(N(C(=O)c2nnsc2C)C(C(=O)NC(C)C)c2cccc(Cl)c2)cc1Cl (stereo not drawn)", 14),
    ("Cc1ccc(N(C(=O)c2nnsc2C)C(C(=O)NC(C)C)c2cccc([N+](=O)[O-])c2)cc1Cl (stereo not drawn)", 10),
]
